# PROCEDURE DETAILS: Study 204953 Part 1A: single doses 50-250 mg API PiB with RTV, healthy subjects
# Format: in vivo, human
# CONDITION CONTEXT: human, plasma, oral, single 50 mg API PiB, fasted, with ritonavir (2 days predosing), median (range), read-out: C24

INPUT SMILES: CC(C)C1=C2[C@H]3CC[C@@H]4[C@@]5(C)CC[C@H](OC(=O)CC(C)(C)C(=O)O)C(C)(C)[C@@H]5CC[C@@]4(C)[C@]3(C)CC[C@@]2([C@@H](O)CN(CCN(C)C)Cc2ccc(Cl)cc2)CC1=O
concentration at 24 h (ng/mL): 7.26
